target: Ba/F3 (EGFR^del19/T790M/C797S) triple-mutant cells (Homo sapiens, UniProt P00533, T790M/C797S, cells depend on it, form not given); experiment: Antiproliferative activity against Ba/F3 (EGFR del19/T790M/C797S) triple-mutant cells, Cell Titer Glow; assay type: cell-based; settings: three days after addition of compounds; read-out: Antiproliferative activity BaF3(EGFR^del19/T790M/C797S) IC50
Sequence (P00533 with tags, fused parts or gaps DEL746-750/T790M/C797S, form open): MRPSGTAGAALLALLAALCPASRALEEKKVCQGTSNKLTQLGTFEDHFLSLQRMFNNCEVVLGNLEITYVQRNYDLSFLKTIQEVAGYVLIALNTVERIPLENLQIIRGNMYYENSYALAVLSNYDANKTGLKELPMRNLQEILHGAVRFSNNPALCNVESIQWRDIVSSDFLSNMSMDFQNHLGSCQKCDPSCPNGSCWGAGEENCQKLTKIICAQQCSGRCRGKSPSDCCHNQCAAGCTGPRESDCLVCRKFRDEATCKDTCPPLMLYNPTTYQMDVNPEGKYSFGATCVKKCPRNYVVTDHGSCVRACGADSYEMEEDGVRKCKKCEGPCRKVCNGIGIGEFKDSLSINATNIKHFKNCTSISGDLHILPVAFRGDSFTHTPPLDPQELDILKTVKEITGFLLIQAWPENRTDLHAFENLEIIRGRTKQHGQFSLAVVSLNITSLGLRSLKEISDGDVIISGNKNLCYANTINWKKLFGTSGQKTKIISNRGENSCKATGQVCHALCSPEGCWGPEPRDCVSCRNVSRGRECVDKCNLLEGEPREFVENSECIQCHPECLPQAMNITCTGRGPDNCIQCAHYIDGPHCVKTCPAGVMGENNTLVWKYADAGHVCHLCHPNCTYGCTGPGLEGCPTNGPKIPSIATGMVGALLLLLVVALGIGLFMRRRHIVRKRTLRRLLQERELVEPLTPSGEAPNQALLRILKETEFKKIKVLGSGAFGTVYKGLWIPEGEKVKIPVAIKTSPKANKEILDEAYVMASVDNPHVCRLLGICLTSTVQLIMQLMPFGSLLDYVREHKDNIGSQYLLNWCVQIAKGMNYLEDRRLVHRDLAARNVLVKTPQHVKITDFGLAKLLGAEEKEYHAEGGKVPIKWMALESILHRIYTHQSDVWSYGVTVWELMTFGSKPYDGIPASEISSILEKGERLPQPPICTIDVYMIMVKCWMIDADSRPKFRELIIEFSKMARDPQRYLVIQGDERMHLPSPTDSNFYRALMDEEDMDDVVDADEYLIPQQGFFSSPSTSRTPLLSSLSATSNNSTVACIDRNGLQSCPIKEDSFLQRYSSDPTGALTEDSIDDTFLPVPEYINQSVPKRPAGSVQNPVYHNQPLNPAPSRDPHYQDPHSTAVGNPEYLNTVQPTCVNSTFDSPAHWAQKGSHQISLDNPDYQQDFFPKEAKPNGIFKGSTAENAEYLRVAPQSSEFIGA
property: GI50 (nM)

Reference set (2 entries):
# structure-string, GI50 / nM
rows = [
    ("CN1CCN(C2CCN(c3ccc(Nc4nc(NC5COC5)c(-c5cccc6[nH]ccc56)nc4C(N)=O)cc3)CC2)CC1", 13),
    ("CNc1nc(Nc2ccc(N3CCC(N4CCN(C)CC4)CC3)cc2)c(C(N)=O)nc1-c1ccccc1", 197),
]

(A) CC(C)Nc1nc(Nc2ccc(N3CCC(N4CCN(C)CC4)CC3)cc2)c(C(N)=O)nc1-c1ccccc1
(B) CN1CCN(C2CCN(c3ccc(Nc4nc(N[C@H]5CC[C@H](O)CC5)c(-c5ccccc5)nc4C(N)=O)cc3)CC2)CC1
Would you kindly point out which of A and B has the smaller GI50 figure? Please identify the chosen entry by its label.
B
(B: 36 nM, A: 107 nM)
